Give measured thermal shift delta Tm for each item. Keep answers brief.
# System: LOC_OS01G51400-cb002;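 further: purified Escherichia coli-expressed rice kinase domain construct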
# measurement_notes: thermal shift delta Tm vs DMSO control; higher = stronger stabilization (binding)
# condition: 12.5 µM; protein concentration 2 µM
Answers are plain numbers, in °C.

The following compounds have reported results that may help.
CO[C@H]1C[C@@H]2CC[C@@H](C)[C@@](O)(O2)C(=O)C(=O)N2CCCC[C@H]2C(=O)O[C@H]([C@H](C)C[C@@H]2CC[C@@H](OC(=O)C(C)(CO)CO)[C@H](OC)C2)CC(=O)[C@H](C)/C=C(\C)[C@@H](O)[C@@H](OC)C(=O)[C@H](C)C[C@H](C)/C=C/C=C/C=C/1C: 0.1
Cc1cc(Nc2cc(N3CCN(C)CC3)nc(/C=C/c3ccccc3)n2)n[nH]1 [ENMD-2076 L-(+)-Tartaric acid]: 0.81
Cc1ccc(F)c(NC(=O)Nc2ccc(-c3cccc4[nH]nc(N)c34)cc2)c1 [Linifanib (ABT-869)]: 0.54
CNc1nc(Nc2cnn([C@H]3CCN(C4COC4)C[C@@H]3F)c2Cl)ncc1C(F)(F)F: 0.18
CCN1C(=O)CNc2ncc(-c3ccc(-c4nc[nH]n4)nc3C)nc21: -0.29
O=C(Nc1cccc(C(F)(F)F)c1)c1cccc2cc(Oc3cc(CO)ncn3)ccc12: 0.1
Nc1ncc(-c2ccnc(Nc3ccncc3)n2)c(CC2CC2)n1: 0.15
CC[C@H](CO)Nc1nc(NCc2ccccc2)c2ncn(C(C)C)c2n1 [Roscovitine (Seliciclib,CYC202)]: 0.03

Hi, could you look up thermal shift delta Tm for each item in my list?
1. C[C@H](NC(=O)c1c(N)nn2cccnc12)c1cc2cccc(C#Cc3cnn(C)c3)c2c(=O)n1-c1ccccc1
2. COc1ccc(-c2ccc3c(N4CCOC[C@@H]4C)nc(N4CCOC[C@@H]4C)nc3n2)cc1CO
3. C[C@@H]1COCCN1c1cc(C2([S@](C)(=N)=O)CC2)nc(-c2cc[nH]c3nccc2-3)n1

Completion:
[0.28, -0.16, -0.01]

Parameters: items (list). Returns: thermal shift delta Tm for each item.
1. COc1ccc2[nH]cc(/C=C3\C(=O)Nc4ccc(NC(=O)CCN5CCCCC5)cc43)c2c1
2. Cc1cc(Nc2cc(N3CCN(C)CC3)nc(Sc3ccc(NC(=O)C4CC4)cc3)n2)n[nH]1 [Tozasertib (VX-680, MK-0457)]
3. O=C1c2ccc(Nc3ccc(F)cc3F)cc2CCc2ccc(OC[C@H](O)CO)cc21 [Skepinone-L]
4. O=C1Cc2c([nH]c3ccc(Br)cc23)-c2ccccc2N1 [Kenpaullone]

Completion:
1. 0.58
2. 0.88
3. -0.11
4. 0.72

Please report thermal shift delta Tm for every entry that follows.
1. CCCCNc1ncc2c(-c3ccc(CN4CCN(C)CC4)cc3)cn([C@H]3CC[C@H](O)CC3)c2n1
2. CN1c2ccccc2C(=O)Nc2cnc(Nc3ccc(N4CCC(O)CC4)cc3)nc21
3. Cn1ncc(Cl)c1-c1cc(C(=O)N[C@H](CN)Cc2ccc(F)c(F)c2)oc1Cl
4. Cn1cc(/C=C2\C(=O)Nc3cccnc32)c2ccccc21
5. CCCNC(=O)Nc1ccc(Oc2ncnc3cc(OC)c(OC)cc23)cc1Cl
6. C[C@@]1(C(=O)Nc2ccc(F)nc2)CCCN1c1nc(Nc2cc(C3CC3)n[nH]2)c2cccn2n1
7. COC(=O)Nc1ccc(-c2nc(N3CCOCC3)c3cnn(C4CCN(C(=O)OC)CC4)c3n2)cc1

Completion:
0.81
0.1
0.44
0.44
-0.13
0.67
-0.05

List thermal shift delta Tm for every entry below, keeping the order given.
1. CC1(COc2ccc3c(c2)ncn3-c2ccc3cccc(N4CCC(N)CC4)c3n2)COC1
2. CC(C)NC[C@@H](C(=O)N1CCN(c2ncnc3c2[C@H](C)C[C@H]3O)CC1)c1ccc(Cl)cc1 [Ipatasertib (GDC-0068)]

Completion:
1: 0.13; 2: 0.32
